# ASSAY NAME: S. cerevisiae growth modulation with rapamycin, primary screen, strain BY4716, OD600, 96 h (AID 1091); also: test concentration not given here
# CONDITION SUMMARY: higher = more signal, called active from +8 up or from −8 down
Exercise: for every item that follows, state its recorded z-score.
One number for each entry.

Here is how some molecules turned out for z-score.
molecule="CC1CC/C=C\\[C@H]2OC34C=CCN(C(C)(C)C)C(=O)[C@H]3N(C(C)CO)C(=O)[C@@H]4C2C(=O)O1 (stereo partly drawn)" value_type=z-score reported_result=-0.0168
molecule=CCOC(=O)C[C@H]1[C@H](OC(=O)c2ccc(C(=O)c3ccccc3)cc2)[C@@H](NC(=O)c2ccccc2)c2cc(OCCCO)ccc2N1C(=O)c1ccc2ccccc2n1 value_type=z-score reported_result=0.443
molecule="COc1cc2c(cc1O)C(c1cccs1)N(C)CC2 (stereo not drawn)" value_type=z-score reported_result=-2.13

I'm hoping you can list z-score for every molecule here, please.
1. NC(=O)NCC#Cc1ccc2c(c1)[C@]1(C(=O)N2)[C@H](C(=O)Nc2nc3ccccc3s2)[C@H]2C(=O)O[C@H](c3ccccc3)[C@H](c3ccccc3)N2[C@@H]1c1ccccc1OCCO
2. O=C1C[C@@](C(=O)NCCN2CCOCC2)(c2ccc([N+](=O)[O-])cc2)[C@@H](c2ccc(CO)cc2I)N1CC12CC3CC(CC(C3)C1)C2
3. O=C(NCCN1CCOCC1)C1N=C(c2ccc(OCCCO)cc2)N(c2ccccc2)O1 (stereo not drawn)
4. CC(C)C(=C=CC[C@H](O)c1ccc(OCCO)cc1)CCO
5. CNS(=O)(=O)c1ccc(C)cc1

Reply |
[3.48, 0.0788, -0.36, -0.768, -0.719]

I'm hoping you can list z-score for every molecule here, please.
1. COc1cc2c(cc1OC)CN(C(=O)[C@H]1[C@@H]3C(=O)O[C@@H](c4ccccc4)[C@@H](c4ccccc4)N3[C@@H](c3ccc(O)cc3)[C@]13C(=O)Nc1ccc(C#CCCO)cc13)CC2
2. O=C1O[C@@H](c2ccccc2)[C@@H](c2ccccc2)N2[C@@H](c3ccccc3OCCO)[C@]3(C(=O)Nc4ccccc43)[C@@H](C(=O)Nc3nc4ccccc4s3)[C@H]12

Reply |
1: 1.91; 2: 2.85

* * *

Exercise: for every item that follows, state its recorded composite z-score.
# ASSAY NAME: anti-His antibody binders, primary screen, artefact control for SMM control protein annotation, biochemical, small-molecule microarray, 635 nm fluorescence (AID 1128);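 also: score merges feature fluorescence with signal-to-noise for each printed compound spot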
# CONDITION SUMMARY: anti-His Alexa647 antibody binding, higher = more signal
Answers are plain numbers.

smiles_structure=COC(=O)C(CC#Cc1ccc2c(c1)[C@]1(C(=O)N2)[C@H](C(=O)Nc2nc3ccccc3s2)[C@H]2C(=O)O[C@H](c3ccccc3)[C@H](c3ccccc3)N2[C@@H]1c1ccccc1OCCO)C(=O)OC reported_result=1.41
smiles_structure=COCC(=C=CC[C@@H](O)c1cccc(OCCO)c1)C[C@@H](O)c1ccccn1 reported_result=-0.252
smiles_structure=COc1ccc(C#Cc2ccc3c(c2)[C@]2(C(=O)N3)[C@H](C(=O)Nc3nc4ccccc4s3)[C@H]3C(=O)O[C@H](c4ccccc4)[C@H](c4ccccc4)N3[C@@H]2c2ccc(O)cc2)cc1 reported_result=0.973

I'm hoping you can list composite z-score for every compound here, please.
1. C=CC[C@@]1(C(=O)NCCN2CCOCC2)N=C(c2ccc(OCCCO)cc2)O[C@@H]1c1ccccc1N=[N+]=[N-]
2. COCCOC(=O)N1C(=O)[C@@]2(c3cc(C#CCCO)ccc31)[C@H](C(=O)N1CCCCCCC1)[C@H]1C(=O)O[C@H](c3ccccc3)[C@H](c3ccccc3)N1[C@@H]2c1ccc(OCCO)cc1
3. CC(C)[Si]1(C(C)C)O[C@@H](c2ccccc2)c2cc(-c3ccc(-c4ccc(Cl)c(Cl)c4)o3)nc(-c3ccccc3)c21

Reply |
1: 0.373; 2: 1.19; 3: 2.46

* * *

# ASSAY NAME: P. aeruginosa biofilm formation inhibitors, primary screen, strain PAO1, LB-PBS medium, absorbance 600 nm (AID 1176); also: test concentration not given here
# CONDITION SUMMARY: P. aeruginosa PAO1 growth/biofilm, A600, 12 h; higher = more signal
Exercise: for every item that follows, state its recorded z-score.
Give bare numbers.

Here is how some molecules turned out for z-score.
molecule=COc1cc2c(cc1OC)CN(C(=O)[C@H]1[C@@H]3C(=O)O[C@@H](c4ccccc4)[C@@H](c4ccccc4)N3[C@@H](c3ccc(O)cc3)[C@]13C(=O)Nc1ccc(C#CCCO)cc13)CC2 reported_result=0.393
molecule=CCCC[C@@H]1C[C@H]1[C@@H](NC(=O)c1cccs1)c1ccc(-c2ccccc2)cc1 reported_result=1.03
molecule=COCCOC(=O)N1C(=O)[C@@]2(c3cc(C#CCCO)ccc31)[C@H](C(N)=O)[C@H]1C(=O)O[C@H](c3ccccc3)[C@H](c3ccccc3)N1[C@@H]2c1ccc(O)cc1 reported_result=0.181

I'm hoping you can list z-score for every molecule here, please.
1. NC(=O)[C@@H]1[C@H]2C(=O)O[C@H](c3ccccc3)[C@H](c3ccccc3)N2[C@H](c2ccc(O)cc2)[C@@]12C(=O)Nc1ccccc12
2. CC[C@@H]1C=C(C(=O)O)[C@H](c2ccc(Br)cc2)N1S(=O)(=O)c1ccc(C)cc1
3. C=C(C)[C@@H]1CC=C(C(O)C2C=CC3C(=O)N(C)C(=O)C3N2Nc2ccccc2)CC1 (some centres not stated)
4. O=C1OCCC/C=C\[C@H]2OC34C=CCN(Cc5ccccc5)C(=O)[C@H]3N(CCCO)C(=O)[C@@H]4C12 (some centres not stated)

Reply |
1: 0.449; 2: -0.116; 3: 0.751; 4: -1.16

* * *

# Tested on: glycogen synthase kinase-3 (GSK3A per assay name; protocol says GSK3B)
# ASSAY NAME: GSK3 binders on small-molecule microarrays, primary screen, biochemical, small-molecule microarray, 635 nm fluorescence, GSK3A (AID 1103); also: the record names both GSK3A and GSK3B
# CONDITION SUMMARY: small-molecule microarray binding, fluorescence 635 nm; higher = more signal
Each entry gets 0.0 if its composite z-score stays under 0.09, and 1.0 if its composite z-score is 0.09 or above.

Solved cases below.
compound=O=C(c1ccccc1)N1C(=O)[C@@]2(Cc3ccccc31)N=C(c1ccc(OCCCO)cc1)O[C@H]2c1ccccc1 assigned_category=1.0
compound=COCCOC(=O)N1C(=O)[C@@]2(c3cc(C#Cc4ccc(OC)cc4)ccc31)[C@H](c1ccc(O)cc1)N1[C@H](c3ccccc3)[C@H](c3ccccc3)OC(=O)[C@H]1[C@@H]2C(=O)N1CCc2cc(OC)c(OC)cc2C1 assigned_category=1.0
compound=C[N+](C)(C)CCCCCCNC(=O)[C@@H]1C[C@@H]2C(=O)N[C@@H](Cc3ccccc3)C(=O)N2[C@@H]1c1cccc(OCCO)c1 assigned_category=1.0
compound=COc1ccc([Si](C)(C)[C@@H]2[C@@H](CCO)O[C@]3(C(=O)N(Cc4ccc(N(C=O)c5ccccc5)cc4)c4ccccc43)[C@H]2C)cc1 assigned_category=0.0
compound=COCCOC(=O)N1C(=O)[C@@]2(c3cc(C#CCNC(N)=O)ccc31)[C@H](C(=O)Nc1nc3ccccc3s1)[C@H]1C(=O)O[C@H](c3ccccc3)[C@H](c3ccccc3)N1[C@@H]2c1ccc(OCCO)cc1 assigned_category=1.0

Ask | Answer whether composite z-score of C=C(CC1([C@@H](NP(=O)(c2ccccc2)c2ccccc2)[C@H]2C[C@@H]2CCCC)CC1)c1ccccc1 is greater than or equal to 0.09.
Reply | 0.0

Ask | What do you have for COCCOC(=O)N1C(=O)[C@@]2(c3cc(C#CCNC(N)=O)ccc31)[C@H](C(=O)N1CCN(c3ncccn3)CC1)[C@H]1C(=O)O[C@H](c3ccccc3)[C@H](c3ccccc3)N1[C@@H]2c1ccc(OCCO)cc1 ?
Reply | 0.0

Ask | What do you have for CC#CC(=O)Oc1ccccc1C=CC(=O)OCC ?
Reply | 1.0

Ask | What do you have for C=C(C)[C@@H]1CC=C(C(O)C2C=CC3C(=O)N(C)C(=O)C3N2Nc2ccccc2)CC1 (some centres undefined) ?
Reply | 1.0

Ask | What do you have for COc1ccc(CCNC(=O)[C@@H]2c3ccccc3C(=O)N(Cc3ccccc3Cl)[C@H]2c2ccc(CO)cc2)cc1 ?
Reply | 1.0

Ask | What do you have for CC(CO)N1C(=O)[C@@H]2C3C(=O)OCCC/C=C\[C@H]3OC23C=CCN(C(C)(C)C)C(=O)[C@@H]13 (some centres undefined) ?
Reply | 0.0

Ask | What do you have for COc1cc(NN2C(C(O)c3ccco3)C=CC3C(=O)N(c4ccccc4)C(=O)C32)cc(OC)c1OC (centres undefined) ?
Reply | 0.0

Ask | What do you have for CNS(=O)(=O)c1ccc(C)cc1 ?
Reply | 1.0

Ask | What do you have for CCOC(=O)C[C@H]1[C@H](OC(=O)c2ccc(C(=O)c3ccccc3)cc2)[C@@H](NC(=O)c2ccccc2)c2cc(OCCCO)ccc2N1C(=O)c1ccc2ccccc2n1 ?
Reply | 1.0
